Ref: patent US20200140532A1

TEST_TARGET: T1, recombinant bovine Aggrecan G1-IGD-G2 (bovine, UniProt P13608 20-684, limits assumed)
T1 construct: also called Bov G1-IGD-G2; Boy G1-IGD-G2
PROTOCOL_TEXT: ELISA on recombinant G1-IGD-G2
ENDPOINT: EC50 (nM)
Numbers only here, please. The scale is nM.

**Query** Need EC50, item C01010118 (ALB26-114F08-114F08) (VHH, not shown: small tags and cut ends, also called C010100118) VHH 1: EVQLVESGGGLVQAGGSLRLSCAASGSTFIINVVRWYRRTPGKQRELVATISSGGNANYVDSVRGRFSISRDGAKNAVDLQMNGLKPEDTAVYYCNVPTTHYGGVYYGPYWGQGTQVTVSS VHH 2: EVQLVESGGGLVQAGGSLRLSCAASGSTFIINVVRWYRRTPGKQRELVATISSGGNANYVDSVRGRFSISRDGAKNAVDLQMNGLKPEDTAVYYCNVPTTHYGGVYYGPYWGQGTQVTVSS
**Result** 0.37
